Exercise: state measured pIC50 for each of the compounds provided.
Entry type: numeric. Quantity: pIC50, the -log10 of concentration in molar units.

State its pIC50 on Tyrosine-protein kinase BTK (Homo sapiens): CC(C)(C=C(C#N)C(=O)N1CCC[C@H]1Cn1nc(-c2ccc(Oc3ccccc3)cc2F)c2c(N)ncnc21)N(C1CC1)C1COC1 7.59

Form entry - test system: Tyrosine-protein kinase BTK (Homo sapiens); read-out: pIC50; compound: CC(C)(C=C(C#N)C(=O)N1CCC[C@H]1Cn1nc(-c2ccc(Oc3ccccc3)cc2F)c2c(N)ncnc21)NC1COC1 7.79
